%-inhibition, ABL values for the compounds below.
# measured-on: panel of more than 300 wild-type and mutant kinases (313 kinase panel) (Homo sapiens, UniProt P00519)
# Sequence (P00519 whole entry, change not shown): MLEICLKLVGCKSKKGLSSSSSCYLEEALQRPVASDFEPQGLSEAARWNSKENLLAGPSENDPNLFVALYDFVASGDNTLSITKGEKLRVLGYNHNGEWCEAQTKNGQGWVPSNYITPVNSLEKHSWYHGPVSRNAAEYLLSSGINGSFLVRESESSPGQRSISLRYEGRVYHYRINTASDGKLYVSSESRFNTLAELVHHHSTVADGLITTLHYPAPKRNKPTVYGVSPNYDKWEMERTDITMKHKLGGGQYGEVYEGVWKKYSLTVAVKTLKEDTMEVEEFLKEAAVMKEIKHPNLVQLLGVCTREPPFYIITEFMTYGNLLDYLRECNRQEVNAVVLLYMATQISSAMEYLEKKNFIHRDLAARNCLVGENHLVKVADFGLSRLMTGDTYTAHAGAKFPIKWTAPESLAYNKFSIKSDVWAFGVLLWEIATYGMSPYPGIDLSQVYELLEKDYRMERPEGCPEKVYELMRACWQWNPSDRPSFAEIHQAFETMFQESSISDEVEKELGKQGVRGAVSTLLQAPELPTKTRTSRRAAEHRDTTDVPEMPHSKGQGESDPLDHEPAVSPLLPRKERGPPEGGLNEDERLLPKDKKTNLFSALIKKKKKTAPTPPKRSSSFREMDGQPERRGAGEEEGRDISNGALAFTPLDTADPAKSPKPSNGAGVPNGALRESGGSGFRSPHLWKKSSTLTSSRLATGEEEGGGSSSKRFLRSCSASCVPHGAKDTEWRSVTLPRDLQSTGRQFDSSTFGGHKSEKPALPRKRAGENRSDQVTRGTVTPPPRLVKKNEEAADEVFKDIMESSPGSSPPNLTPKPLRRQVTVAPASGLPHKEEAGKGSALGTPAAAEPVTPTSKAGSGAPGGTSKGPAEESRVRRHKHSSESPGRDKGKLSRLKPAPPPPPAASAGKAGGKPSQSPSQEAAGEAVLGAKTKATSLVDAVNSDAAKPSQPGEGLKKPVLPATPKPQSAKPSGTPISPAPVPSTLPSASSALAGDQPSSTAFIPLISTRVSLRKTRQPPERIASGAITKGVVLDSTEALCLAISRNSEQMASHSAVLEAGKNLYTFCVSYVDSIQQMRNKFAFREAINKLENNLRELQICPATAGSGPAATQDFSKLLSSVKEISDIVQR
# assay-method-text: Kinase profiling in a biochemical assay panel (mobility shift assays and ELISA), %-inhibition at 1 μM; selectivity entropy
# measurement-parameters: kinase ABL; 1 μM compound
Answer in %, number only, no unit symbol.

# compound, result-units, %-inhibition, ABL
rows = [
    ("CNC(=O)c1cc(Oc2ccc(NC(=O)Nc3ccc(Cl)c(C(F)(F)F)c3)c(F)c2)ccn1", "%", 68),
    ("CCCS(=O)(=O)Nc1ccc(F)c(C(=O)c2c[nH]c3ncc(-c4ccc(Cl)cc4)cc23)c1F", "%", 15),
    ("COc1cc2nccc(Oc3ccc(NC(=O)C4(C(=O)Nc5ccc(F)cc5)CC4)cc3)c2cc1OC [cabozantinib]", "%", 56),
    ("O=S(=O)(c1cccc2cnccc12)N1CCCNCC1", "%", -8),
]

GET /value?item= CS(=O)(=O)CCNCc1ccc(-c2ccc3ncnc(Nc4ccc(OCc5cccc(F)c5)c(Cl)c4)c3c2)o1 &field=%-inhibition, ABL returns 17

---

# measured-on: panel of more than 300 wild-type and mutant kinases (313 kinase panel) (Homo sapiens, UniProt P04629)
# assay-method-text: Kinase profiling in a biochemical assay panel (mobility shift assays and ELISA), %-inhibition at 1 μM; selectivity entropy
# measurement-parameters: kinase TRKA; 1 μM
Each entry below carries its reported %-inhibition of TRKA.
Numeric only. Scale: %

The following compounds have reported results that may help.
# compound-string, %-inhibition of TRKA / %
records = [
    ("CC(=O)Nc1cccc(-n2c(=O)n(C3CC3)c(=O)c3c(Nc4ccc(I)cc4F)n(C)c(=O)c(C)c32)c1", -1.17),
    ("COc1cc2c(Nc3ccc(Br)cc3F)ncnc2cc1OCC1CCN(C)CC1", 46),
    ("CS(=O)(=O)CCNCc1ccc(-c2ccc3ncnc(Nc4ccc(OCc5cccc(F)c5)c(Cl)c4)c3c2)o1", 5.64),
]

Form field %-inhibition of TRKA, entry CCCS(=O)(=O)Nc1ccc(F)c(C(=O)c2c[nH]c3ncc(-c4ccc(Cl)cc4)cc23)c1F : 16

// CCN(CC)CCNC(=O)c1c(C)[nH]c(/C=C2\C(=O)Nc3ccc(F)cc32)c1C : %-inhibition of TRKA value = 98

// recorded %-inhibition of TRKA for COc1cc(Nc2c(C#N)cnc3cc(OCCCN4CCN(C)CC4)c(OC)cc23)c(Cl)cc1Cl : 88

For O=S(=O)(c1cccc2cnccc12)N1CCCNCC1 the compound record lists %-inhibition of TRKA as -2.44

Reported %-inhibition of TRKA of C[C@@H](Oc1cc(-c2cnn(C3CCNCC3)c2)cnc1N)c1c(Cl)ccc(F)c1Cl : 103

Please fill in: %-inhibition of TRKA reported for CNC(=O)c1cc(Oc2ccc(NC(=O)Nc3ccc(Cl)c(C(F)(F)F)c3)c(F)c2)ccn1 = 90

---

# measured-on: panel of more than 300 wild-type and mutant kinases (313 kinase panel) (Homo sapiens)
# assay-method-text: Kinase profiling in a biochemical assay panel (mobility shift assays and ELISA), %-inhibition at 1 μM; selectivity entropy
# measurement-parameters: kinase PDHK2; 1 μM
assay-metric: %-inhibition of PDHK2 (%)
Provide the reading as a plain figure in %.

# molecule, measured-on, result-units, %-inhibition of PDHK2
measured = [
    ("CS(=O)(=O)CCNCc1ccc(-c2ccc3ncnc(Nc4ccc(OCc5cccc(F)c5)c(Cl)c4)c3c2)o1", "panel of more than 300 wild-type and mutant kinases (313 kinase panel) (Homo sapiens)", "%", -5),
    ("CC(C)(C)c1nc(-c2cccc(NS(=O)(=O)c3c(F)cccc3F)c2F)c(-c2ccnc(N)n2)s1", "panel of more than 300 wild-type and mutant kinases (313 kinase panel) (Homo sapiens)", "%", 0.108),
    ("O=S(=O)(c1cccc2cnccc12)N1CCCNCC1", "panel of more than 300 wild-type and mutant kinases (313 kinase panel) (Homo sapiens)", "%", -0.108),
    ("C[C@@H](Oc1cc(-c2cnn(C3CCNCC3)c2)cnc1N)c1c(Cl)ccc(F)c1Cl", "panel of more than 300 wild-type and mutant kinases (313 kinase panel) (Homo sapiens)", "%", -3.51),
    ("COc1cc2c(Nc3ccc(Br)cc3F)ncnc2cc1OCC1CCN(C)CC1", "panel of more than 300 wild-type and mutant kinases (313 kinase panel) (Homo sapiens)", "%", 0.22),
    ("CCCS(=O)(=O)Nc1ccc(F)c(C(=O)c2c[nH]c3ncc(-c4ccc(Cl)cc4)cc23)c1F", "panel of more than 300 wild-type and mutant kinases (313 kinase panel) (Homo sapiens)", "%", 3.73),
    ("Cc1cn(-c2cc(NC(=O)c3ccc(C)c(Nc4nccc(-c5cccnc5)n4)c3)cc(C(F)(F)F)c2)cn1", "panel of more than 300 wild-type and mutant kinases (313 kinase panel) (Homo sapiens)", "%", 0.549),
    ("CO[C@H]1C[C@@H]2CC[C@@H](C)[C@@](O)(O2)C(=O)C(=O)N2CCCC[C@H]2C(=O)O[C@H]([C@H](C)C[C@@H]2CC[C@@H](OCCO)[C@H](OC)C2)CC(=O)[C@H](C)/C=C(\\C)[C@@H](O)[C@@H](OC)C(=O)[C@H](C)C[C@H](C)/C=C/C=C/C=C/1C", "panel of more than 300 wild-type and mutant kinases (313 kinase panel) (Homo sapiens)", "%", 4),
]

Looking up CN(C)C/C=C/C(=O)Nc1cc2c(Nc3ccc(F)c(Cl)c3)ncnc2cc1O[C@H]1CCOC1 , I found its %-inhibition of PDHK2 recorded as -2.76

According to the records, this molecule CO[C@H]1C[C@@H]2CC[C@@H](C)[C@@](O)(O2)C(=O)C(=O)N2CCCC[C@H]2C(=O)O[C@H]([C@H](C)C[C@@H]2CC[C@@H](OC(=O)C(C)(CO)CO)[C@H](OC)C2)CC(=O)[C@H](C)/C=C(\C)[C@@H](O)[C@@H](OC)C(=O)[C@H](C)C[C@H](C)/C=C/C=C/C=C/1C displays %-inhibition of PDHK2 of -2.2

Per the record, CNC(=O)c1cc(Oc2ccc(NC(=O)Nc3ccc(Cl)c(C(F)(F)F)c3)c(F)c2)ccn1 has %-inhibition of PDHK2 of 7

Briefly, %-inhibition of PDHK2 measured for Cc1ccc(Nc2nccc(N(C)c3ccc4c(C)n(C)nc4c3)n2)cc1S(N)(=O)=O : -4.23

Entry under test: Cc1ccc(C(=O)Nc2ccc(CN3CCN(C)CC3)c(C(F)(F)F)c2)cc1C#Cc1cnc2cccnn12 . Its %-inhibition of PDHK2 was -0.22

In plain terms, N#CC[C@H](C1CCCC1)n1cc(-c2ncnc3[nH]ccc23)cn1 has a documented %-inhibition of PDHK2 of -4

Record COc1cc2nccc(Oc3ccc(NC(=O)C4(C(=O)Nc5ccc(F)cc5)CC4)cc3)c2cc1OC [cabozantinib] . Reported %-inhibition of PDHK2: -1.54

Given item CC(=O)Nc1cccc(-n2c(=O)n(C3CC3)c(=O)c3c(Nc4ccc(I)cc4F)n(C)c(=O)c(C)c32)c1 , the value recorded as its %-inhibition of PDHK2 is -0.542

Reported %-inhibition of PDHK2 of COc1cc(Nc2c(C#N)cnc3cc(OCCCN4CCN(C)CC4)c(OC)cc23)c(Cl)cc1Cl : -3.29

---

# Tested on: forty-four human cancer cell lines
# assay-method-text: Cell proliferation assay (ATPlite, 72 hours) in the 44 cell line Oncolines panel
# Assay type: cell-based
# measurement-parameters: Homo sapiens, A 172, read-out: cell panel IC50, A-172, cell line A-172
assay-metric: pIC50
// returns pIC50 (minus log10 of molar concentration), number only

# compound, pIC50
measured = [
    ("CC(C)C[C@H](NC(=O)[C@H](Cc1ccccc1)NC(=O)c1cnccn1)B(O)O [bortezomib]", 8.33),
]

Attention now shifts to the item below.
Entry O=c1[nH]cc(F)c(=O)[nH]1 [5-fluorouracil] , pIC50 reported as 6.01

---

Documented %-inhibition of PKN1 across a set of compounds
# measured-on: panel of more than 300 wild-type and mutant kinases (313 kinase panel) (Homo sapiens)
# assay-method-text: Kinase profiling in a biochemical assay panel (mobility shift assays and ELISA), %-inhibition at 1 μM; selectivity entropy
# measurement-parameters: kinase PKN1; 1 μM
I only need the number, in %, no unit after it.

Use these answered entries as a reference point.
# compound-string, recorded-number
measured = [
    ("CO[C@H]1C[C@@H]2CC[C@@H](C)[C@@](O)(O2)C(=O)C(=O)N2CCCC[C@H]2C(=O)O[C@H]([C@H](C)C[C@@H]2CC[C@@H](OCCO)[C@H](OC)C2)CC(=O)[C@H](C)/C=C(\\C)[C@@H](O)[C@@H](OC)C(=O)[C@H](C)C[C@H](C)/C=C/C=C/C=C/1C", 2.6),
    ("C[C@@H](Oc1cc(-c2cnn(C3CCNCC3)c2)cnc1N)c1c(Cl)ccc(F)c1Cl", 23),
    ("COc1cc2c(Nc3ccc(Br)cc3F)ncnc2cc1OCC1CCN(C)CC1", 0.946),
]

Sample Cc1ccc(C(=O)Nc2ccc(CN3CCN(C)CC3)c(C(F)(F)F)c2)cc1C#Cc1cnc2cccnn12 ; %-inhibition of PKN1 observed: 1.61

CS(=O)(=O)CCNCc1ccc(-c2ccc3ncnc(Nc4ccc(OCc5cccc(F)c5)c(Cl)c4)c3c2)o1 yielded %-inhibition of PKN1 of 0

The recorded %-inhibition of PKN1 for CC(=O)Nc1cccc(-n2c(=O)n(C3CC3)c(=O)c3c(Nc4ccc(I)cc4F)n(C)c(=O)c(C)c32)c1 is 3.71
